Biological target: DNA gyrase subunit A/DNA gyrase subunit B (Mycobacterium tuberculosis (strain ATCC 25618 / H37Rv), UniProt P9WG45+P9WG47)
Sequence (P9WG45 whole entry): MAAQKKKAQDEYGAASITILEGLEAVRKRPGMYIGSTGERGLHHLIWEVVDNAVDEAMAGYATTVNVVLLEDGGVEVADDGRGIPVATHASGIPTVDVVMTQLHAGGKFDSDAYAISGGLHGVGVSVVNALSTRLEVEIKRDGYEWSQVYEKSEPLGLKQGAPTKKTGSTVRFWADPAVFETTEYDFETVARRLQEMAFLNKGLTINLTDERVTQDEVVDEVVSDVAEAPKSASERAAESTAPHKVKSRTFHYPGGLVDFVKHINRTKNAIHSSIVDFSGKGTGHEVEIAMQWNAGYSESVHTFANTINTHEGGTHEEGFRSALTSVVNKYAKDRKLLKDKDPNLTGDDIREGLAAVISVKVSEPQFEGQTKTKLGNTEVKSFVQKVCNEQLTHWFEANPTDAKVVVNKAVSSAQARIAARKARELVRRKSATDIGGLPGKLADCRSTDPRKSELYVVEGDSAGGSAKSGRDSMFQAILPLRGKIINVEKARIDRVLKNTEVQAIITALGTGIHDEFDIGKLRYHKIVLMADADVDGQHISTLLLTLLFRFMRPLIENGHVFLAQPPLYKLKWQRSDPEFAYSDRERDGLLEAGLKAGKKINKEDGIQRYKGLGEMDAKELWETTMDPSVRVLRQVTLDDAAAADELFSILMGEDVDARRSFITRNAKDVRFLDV
Sequence (P9WG47 whole entry): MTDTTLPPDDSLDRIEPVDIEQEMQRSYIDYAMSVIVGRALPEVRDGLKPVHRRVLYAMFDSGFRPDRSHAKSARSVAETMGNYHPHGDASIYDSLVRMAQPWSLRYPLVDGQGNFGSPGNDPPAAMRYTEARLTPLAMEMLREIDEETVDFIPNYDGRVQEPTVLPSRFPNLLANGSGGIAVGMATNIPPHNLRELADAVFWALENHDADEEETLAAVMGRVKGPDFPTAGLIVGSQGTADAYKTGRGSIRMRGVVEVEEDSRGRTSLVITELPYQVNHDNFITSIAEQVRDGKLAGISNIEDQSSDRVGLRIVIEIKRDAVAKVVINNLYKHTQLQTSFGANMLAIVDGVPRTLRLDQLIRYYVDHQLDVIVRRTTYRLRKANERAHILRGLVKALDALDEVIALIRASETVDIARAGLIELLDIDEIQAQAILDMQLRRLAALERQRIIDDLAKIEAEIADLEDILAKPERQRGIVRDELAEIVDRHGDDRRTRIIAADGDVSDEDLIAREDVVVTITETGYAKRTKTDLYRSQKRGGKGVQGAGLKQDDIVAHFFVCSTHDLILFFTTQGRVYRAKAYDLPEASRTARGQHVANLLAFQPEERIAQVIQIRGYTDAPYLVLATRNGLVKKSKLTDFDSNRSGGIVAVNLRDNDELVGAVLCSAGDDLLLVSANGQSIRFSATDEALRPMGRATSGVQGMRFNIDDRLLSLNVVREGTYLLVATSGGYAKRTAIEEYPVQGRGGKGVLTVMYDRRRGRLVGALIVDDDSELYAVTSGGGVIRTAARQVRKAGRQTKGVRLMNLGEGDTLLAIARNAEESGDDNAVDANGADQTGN
Assay: Inhibition of Mycobacterium tuberculosis DNA gyrase using relaxed pBR322 as substrate after 30 mins by supercoiling assay
Response field label takes yes when IC50 is strictly below 3 µM and no in all other cases.

Examples from the recorded data:
# item smiles, cat
rows = [
    ("CCOC(=O)c1cc2cc(N3CCN(C(=S)NCc4ccc(Cl)cc4)CC3)ccc2o1", "no"),
    ("CCOC(=O)c1cc2cc(N3CCN(C(=O)NCc4ccccc4)CC3)ccc2o1", "no"),
    ("O=C(Nc1ccccc1)N1CCN(c2nsc3ccccc23)CC1", "no"),
    ("CCOC(=O)c1cc2cc(N3CCN(C(=O)Nc4ccc(OC)cc4)CC3)ccc2o1", "no"),
    ("O=C(NCc1ccccc1)N1CCN(c2nsc3ccccc23)CC1", "yes"),
]

[ask] Quick check: does CCOC(=O)c1cc2cc(N3CCN(C(=S)Nc4ccc(Cl)cc4)CC3)ccc2o1 have IC50 under 3 µM?
[reply] no
